target: Ubiquitin carboxyl-terminal hydrolase 30 (Homo sapiens) (UniProt Q70CQ3); assay: inhibitors of ubiquitin-specific protease 30 deubiquitylating enzyme, concentration dependence, in vitro biochemical, validation of primary hits (AID 1645865); settings: purified USP30, Ub-rhodamine cleavage, fluorescence, 2 h
Sequence (Q70CQ3 whole entry, looked up): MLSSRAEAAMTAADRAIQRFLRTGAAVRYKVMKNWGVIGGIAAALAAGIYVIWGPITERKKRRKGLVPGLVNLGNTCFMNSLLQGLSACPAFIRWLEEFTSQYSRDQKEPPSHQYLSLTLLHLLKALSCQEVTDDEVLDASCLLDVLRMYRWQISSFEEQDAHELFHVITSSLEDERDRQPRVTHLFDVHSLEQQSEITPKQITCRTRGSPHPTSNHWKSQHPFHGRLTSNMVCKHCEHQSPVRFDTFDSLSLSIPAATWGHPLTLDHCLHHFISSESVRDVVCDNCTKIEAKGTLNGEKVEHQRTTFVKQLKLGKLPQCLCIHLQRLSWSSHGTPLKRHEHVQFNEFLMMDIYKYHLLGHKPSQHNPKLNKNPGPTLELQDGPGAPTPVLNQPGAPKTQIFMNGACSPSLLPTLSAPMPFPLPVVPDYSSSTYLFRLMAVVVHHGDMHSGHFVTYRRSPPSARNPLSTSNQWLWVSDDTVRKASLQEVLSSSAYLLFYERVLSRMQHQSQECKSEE
Active and inactive are the calls of the source.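 How the source made its calls: active means maximal inhibition of the USP30 enzyme reaching 30% or more across the dose series; inactive means the rest.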
Bench note: report the call from t = active, f = inactive

What did this assay record as the result for CC(OC(=O)c1c2c(nc3ccccc13)CCCCC2)C(=O)Nc1ccc2ccccc2c1 (stereo unspecified) ?
t

Would you mind telling me which call this test gave Cc1ccc(CNC(=O)c2ccc(N3C(=O)[C@@H]4Cc5ccccc5CN4C3=O)cc2)cc1 ?
t

Hi, sorry to bother you, what did the test record for COc1ccc(C2CC(=O)Nc3n[nH]c(-c4ccccc4)c32)cc1OC (stereo unspecified) ?
t

Please share the test call associated with COc1ccc(C(=O)NCC(c2ccc3c(c2)CCCN3C)N2CCCC2)cc1 (stereo unspecified) .
f

Given Cc1ccc(Cl)cc1NC(=O)COC(=O)c1ccc2ccccc2n1 , state the outcome it received in this test.
f

Per the assay record, what outcome was assigned to O=C(COC(=O)Cn1cnc2ccccc21)Nc1ccc2c(c1)OCCO2 ?
f

How did this test come out for Cc1nn(-c2ccc([N+](=O)[O-])cc2)c(C)c1-c1nc2ccccc2[nH]1 ?
t
